Listed next: entries and their corresponding Cmax.
- experimentDescription: Oral bioavailability of hydrocodone conjugates in rats, LC/MS/MS
- conditionSet: oral, 5 mg/kg dose, hydrocodone plus hydromorphone
Where a SMILES comes first, the peptide text is derived from it. The star is where a group is joined. X1 = COc1ccc2c3c1O[C@H]1C(O*)=CC[C@H]4[C@@H](C2)N(C)CC[C@]314
parameterMeasured: Cmax (ng/mL)

>>> valuemeasured("CC[C@H](C)[C@H](NC(=O)[C@H](Cc1ccc(O)cc1)NC(=O)[C@@H](N)Cc1ccc(O)cc1)C(=O)OC1=CC[C@H]2[C@H]3Cc4ccc(OC)c5c4[C@@]2(CCN3C)[C@H]1O5 [YYI-HC, Tyr-Tyr-Ile-Hydrocodone]")
15
>>> valuemeasured("CC[C@H](C)[C@H](NC(=O)[C@H](CC(=O)O)NC(=O)[C@@H](N)CC(=O)O)C(=O)OC1=CC[C@H]2[C@H]3Cc4ccc(OC)c5c4[C@@]2(CCN3C)[C@H]1O5 [DDI-HC, Asp-Asp-Ile-Hydrocodone]")
115
>>> valuemeasured("CC[C@H](C)[C@H](NC(=O)[C@H](Cc1ccccc1)NC(=O)[C@H](Cc1ccccc1)NC(=O)[C@H](Cc1ccc(O)cc1)NC(=O)[C@@H](N)Cc1ccc(O)cc1)C(=O)OC1=CC[C@H]2[C@H]3Cc4ccc(OC)c5c4[C@@]2(CCN3C)[C@H]1O5 [YYFFI[SEQ ID NO: 8]-HC] (H-YYFFI-X1)")
46
>>> valuemeasured("CC[C@H](C)[C@H](NC(=O)[C@H](Cc1ccccc1)NC(=O)[C@H](Cc1ccccc1)NC(=O)[C@H](CCC(=O)O)NC(=O)[C@@H](N)CCC(=O)O)C(=O)OC1=CC[C@H]2[C@H]3Cc4ccc(OC)c5c4[C@@]2(CCN3C)[C@H]1O5 [EEFFI[SEQ ID NO: 5]-HC] (H-EEFFI-X1)")
44
